STUDY_TARGET: T1, Bdf1 bromodomain 2 (GST-tagged, WT) (Saccharomyces cerevisiae (strain ATCC …, UniProt P35817))
T1 chain: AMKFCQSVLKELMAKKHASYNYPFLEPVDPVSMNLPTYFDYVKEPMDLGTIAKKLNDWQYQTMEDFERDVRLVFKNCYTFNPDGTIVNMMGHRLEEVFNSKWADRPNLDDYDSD
TEST_NAME: histone peptide array probed with recombinant GST-bromodomain, signal normalised to myc peptide control
Non-standard residues stand in square brackets, D forms with d. No end group written: not given here. Arg(Me2a) = CN(C)C(=N)NCCC[C@H](N)C(=O)O; pT = C[C@@H](OP(=O)(O)O)[C@H](N)C(=O)O; Lys(Me2) = CN(C)CCCC[C@H](N)C(=O)O; pS = N[C@@H](COP(=O)(O)O)C(=O)O
OBSERVATION_TYPE: binding score

Here are 3 binders together with their reported answers.
* AR[pT]K(Ac)QTARKSTGGKAPRKQ | 0.0271
* PRKQLATKAARK(Ac)[pS]APATGG [H3 16-35] | 0
* SGRGKGGKGLGKGGAKRHR (S G R G Kac G G Kac G L G Kac G G A Kac R H R) | 0.944

a = A[Arg(Me2a)]T[Lys(Me2)]QTARK(Ac)STGGKAPRKQ
b = ARTKQTARKSTGGKAPRKQ (A Rme2s T Kme1 Q T A Rme2s K S T G G K A P R K Q)
c = SGRGKGGKGLGKGGAKRHR (histone peptides carry modifications given inline in the sequence and in columns 4-7 (Kac, Kme1/2/3, Rme2a/s, Cit, pS/pT); N-terminus free or acetylated)
Prompt: Please give the order of these binders when sorted by binding score, largest value leading. List labels; respect the requested ordering.
Completion: b, a, c

Where do the numbers come from? From paper PMC5261807.
